Would you mind telling me the reported GI50 of each entry?
tested on: LOX IMVI; test: NCI tumour cell line growth inhibition, 48 h
Calls of active or inactive are those of the source. No stated cut-off is given here; in the data, active = GI50 up to about 1.1 µM and inactive = higher.

Prompt: Look up GI50 of c1ccc(C2N=C(c3ccccn3)C(c3ccccn3)=NC2c2ccccc2)cc1 (stereo not given) and report it.
Completion: > 100 µM (inactive)

Prompt: Look up GI50 of CCOC(=O)Nc1cc2c(c(N)n1)N=C(c1ccccc1)[C@H](C)N2 [MIVOBULIN ISETHIONATE] and report it.
Completion: < 0.0001 µM (active)

Prompt: Look up GI50 of `CC[C@@H]1ON(C)[C@H]2CN(C)C(=O)[C@@H]12` and report it.
Completion: > 100 µM (inactive)

Prompt: Look up GI50 of `COc1cc(OCc2ccccc2)c2c(CCC(=O)O)cc(=O)oc2c1.COc1cc(OCc2ccccc2)cc2oc(=O)cc(CCC(=O)O)c12` and report it.
Completion: 20.9 µM (inactive)

Prompt: Look up GI50 of O=C(CC(O)c1cccnc1)CC(O)c1cccnc1 (stereo not given) and report it.
Completion: 5.18 µM (inactive)
